Reference source for all entries: paper PMC6017000

Measured Stability room temperature, listed per entry for reference.
- assay_notes: Stability of QC samples in aCSF (freeze-thaw, room temperature)
- Type: physicochemical
- test_parameters: aCSF QC 80 ng/mL, room temperature 24 h, percentage remaining, n = 5

compound: O=c1ccc2cc3ccoc3cc2o1
Stability room temperature / %: 94.12
--
compound: COc1ccc2ccc(=O)oc2c1CC=C(C)C
Stability room temperature / %: 93.50
--
compound: CC=C(C)C(=O)OC(C(O)c1cc2ccc(=O)oc2cc1OC)C(C)(C)O (centres unmarked)
Stability room temperature / %: 96.66
--
compound: CC(C)(O)[C@H](O)COc1c2ccoc2cc2oc(=O)ccc12 [Compound 8, oxypeucedanin hydrate]
Stability room temperature / %: 103.37
--
compound: COc1c2ccoc2cc2oc(=O)ccc12
Stability room temperature / %: 99.54
